Entry source: ChEMBL document CHEMBL1131381

Please go through the items and note down their inhibition.
molecular target: Endothelin-converting enzyme 1 (Homo sapiens); assay: Inhibitory activity (1 uM) was assessed on CHO cells expressing in recombinant human Endothelin-converting enzyme 1 (ECE-1); assay type: cell-based
Write the numeric value and append its unit.

Enquiry: Would you kindly share the measured inhibition for O=C(NCCCCc1ccccc1)[C@H](CC#Cc1ccccc1F)NCP(=O)(O)O ?
Return: 0%

Enquiry: COc1ccccc1C#CC[C@H](NCP(=O)(O)O)c1nn[nH]n1 , same question.
Return: 0%

Enquiry: // query: CN(CCc1ccccc1)C(=O)[C@H](CC#Cc1ccccc1F)NCP(=O)(O)O
Return: 3%

Enquiry: Moving on to O=C(NCCc1ccc(-c2ccccc2)cc1)[C@H](CCCc1ccccc1F)NCP(=O)(O)O
Return: 8%

Enquiry: Please answer likewise for Cc1ccc(C#CC[C@H](NCP(=O)(O)O)c2nn[nH]n2)cc1
Return: 45%

---

molecular target: Endothelin-converting enzyme 1 (Homo sapiens, UniProt P42892); test: Inhibitory activity was assessed on CHO cells expressing recombinant human Endothelin-converting enzyme 1 (ECE-1).
quantity: IC50
Hi, when you answer, please include the unit after the number. Thanks!

Enquiry: Please report the recorded IC50 for O=C(O)[C@H](CC#Cc1ccc(F)cc1F)NCP(=O)(O)O .
Return: 170 nM

Enquiry: What do you get for O=C(NCCc1ccc(-c2ccccc2)cc1)[C@H](CC#Cc1ccc(F)cc1F)NCP(=O)(O)O ?
Return: 28 nM

Enquiry: Check O=C(NCCCc1ccccc1)[C@H](CC#Cc1ccc(F)cc1F)NCP(=O)(O)O too.
Return: 150 nM

Enquiry: And for O=P(O)(O)CN[C@@H](CC#Cc1ccccc1)c1nn[nH]n1 ?
Return: 590 nM

Enquiry: Moving on to the next compound: O=C(O)[C@H](Cc1ccc(-c2ccccc2)cc1)NC(=O)[C@H](CC#Cc1ccccc1F)NCP(=O)(O)O
Return: 13 nM

Enquiry: Please answer likewise for CC(C)C[C@H](NC(=O)[C@H](CC#Cc1ccc(F)cc1F)NCP(=O)(O)O)C(=O)N[C@@H](C)C(=O)O
Return: 8 nM

Enquiry: Likewise for CSCC[C@H](NC(=O)[C@H](CC#Cc1ccccc1F)NCP(=O)(O)O)C(=O)O ?
Return: 230 nM

Enquiry: Record: CC(C)CCNC(=O)[C@H](CC#Cc1ccc(F)cc1F)NCP(=O)(O)O
Return: 140 nM

Enquiry: One more compound: O=C(O)[C@H](CC1CCCCC1)NC(=O)[C@H](CC#Cc1ccc(F)cc1F)NCP(=O)(O)O
Return: 14 nM

---

assay: Ratio of inhibitory activities against endothelin converting enzyme-1(ECE-1) and neutral endopeptidase (NEP).
quantity: Selectivity
Please give only the number in your answer, with no unit.

Enquiry: Please look up its Selectivity: O=C(O)[C@H](CC#Cc1ccccc1F)NC(=O)[C@H](CC#Cc1ccccc1F)NCP(=O)(O)O
Return: 225

Enquiry: And the next one, O=C(NCCc1cccc2ccccc12)[C@H](CC#Cc1ccc(F)cc1F)NCP(=O)(O)O ?
Return: 182

Enquiry: Item: O=C(NCCc1ccc(Br)cc1)[C@H](CC#Cc1ccc(F)cc1F)NCP(=O)(O)O
Return: 20

Enquiry: Let us now turn to O=C(NCCc1c[nH]c2ccccc12)[C@H](CC#Cc1ccc(F)cc1F)NCP(=O)(O)O
Return: 87

Enquiry: What do we get for O=C(NCCc1ccc2ccccc2c1)[C@H](CC#Cc1ccc(F)cc1F)NCP(=O)(O)O ?
Return: 132

Enquiry: Again, but for O=C(NCCc1ccc(-c2ccccc2)cc1)[C@H](CC#Cc1ccccc1F)NCP(=O)(O)O
Return: 197

Enquiry: Again, but for CSCC[C@H](NC(=O)[C@H](CC#Cc1ccccc1F)NCP(=O)(O)O)C(=O)O
Return: 18

Enquiry: Try this compound too: O=C(O)[C@H](CC1CCCCC1)NC(=O)[C@H](CC#Cc1ccc(F)cc1F)NCP(=O)(O)O
Return: 148

Enquiry: Another compound: O=C(NCCc1c[nH]c2ccccc12)[C@H](CC#Cc1ccccc1F)NCP(=O)(O)O
Return: 132

Enquiry: Now consider O=C(O)[C@H](CC#Cc1ccc(F)cc1F)NCP(=O)(O)O .
Return: 153

Enquiry: Ok, now O=C(NCCc1ccc(-c2ccccc2)cc1)[C@H](CC#Cc1ccc(F)cc1F)NCP(=O)(O)O
Return: 89

Enquiry: Same again, this time with CC(C)C[C@H](NC(=O)[C@H](CC#Cc1ccccc1)NCP(=O)(O)O)C(=O)O
Return: 1.9

Enquiry: Likewise for O=C(O)[C@H](Cc1ccc(-c2ccccc2)cc1)NC(=O)[C@H](CC#Cc1ccccc1F)NCP(=O)(O)O ?
Return: 19

Enquiry: Please do the same for CC(C)C[C@H](NC(=O)[C@H](CC#Cc1ccc(F)cc1F)NCP(=O)(O)O)C(=O)O as well.
Return: 131

Enquiry: Try this compound too: O=C(O)[C@H](CC#Cc1ccccc1F)NCP(=O)(O)O
Return: 46

Enquiry: // repeat for O=P(O)(O)CN[C@@H](CC#Cc1ccccc1F)c1nnn[nH]1 and report
Return: 0.1

Enquiry: Also O=P(O)(O)C(CCc1cccc2ccccc12)N[C@@H](Cc1ccc(-c2ccccc2)cc1)c1nnn[nH]1 (some centres undefined) ?
Return: 0.29

Enquiry: Same again, this time with O=C(O)CN1C(=O)[C@@H](NC(=O)[C@H](CC#Cc2ccc(F)cc2F)NCP(=O)(O)O)CCc2ccccc21
Return: 9

Enquiry: // next record O=C(O)[C@H](Cc1ccccc1)NC(=O)[C@H](CC#Cc1ccccc1F)NCP(=O)(O)O
Return: 21

Enquiry: What about this compound? O=P(O)(O)CN[C@@H](CC#Cc1ccccc1)c1nn[nH]n1
Return: 0.3

Enquiry: Then CC(C)C[C@H](NC(=O)[C@H](CC#Cc1ccc(F)cc1F)NCP(=O)(O)O)C(=O)N[C@@H](C)C(=O)O ?
Return: 725

Enquiry: Param item: O=C(NCCc1cccc2ccccc12)[C@H](CC#Cc1ccccc1F)NCP(=O)(O)O
Return: 82

Enquiry: Thanks! And CC(C)CCNC(=O)[C@H](CC#Cc1ccc(F)cc1F)NCP(=O)(O)O ?
Return: 164

Enquiry: Let us now turn to O=C(NCCc1ccc(Br)cc1)[C@H](CC#Cc1ccccc1F)NCP(=O)(O)O
Return: 364

Enquiry: Follow-up entry: O=C(NCCc1ccccn1)[C@H](CC#Cc1ccc(F)cc1F)NCP(=O)(O)O
Return: 32

Enquiry: Queued: O=C(NCc1ccccc1)[C@H](CC#Cc1ccccc1F)NCP(=O)(O)O
Return: 220

Enquiry: How about O=C(O)[C@H](Cc1ccc2ccccc2c1)NC(=O)[C@H](CC#Cc1ccccc1F)NCP(=O)(O)O ?
Return: 52

Enquiry: How about this compound: O=C(NCCc1ccccc1)[C@H](CC#Cc1ccccc1F)NCP(=O)(O)O
Return: 83

Enquiry: # iterate: CC(C)[C@H](NC(=O)[C@H](CC#Cc1ccccc1F)NCP(=O)(O)O)C(=O)O
Return: 57

---

biological target: Endothelin-converting enzyme 1 (Homo sapiens); assay: Inhibitory activity was assessed on CHO cells expressing recombinant human Endothelin-converting enzyme 1 (ECE-1).
Can you tell me IC50 for the items I'm about to list?
I'd appreciate it if you wrote the number followed by its unit.

Enquiry: I'd like to know its IC50. The compound in question is O=C(NCCc1ccc(Br)cc1)[C@H](CC#Cc1ccccc1F)NCP(=O)(O)O
Return: 0.11 µM

Enquiry: Please do the same for O=C(NCCc1c[nH]c2ccccc12)[C@H](CC#Cc1ccc(F)cc1F)NCP(=O)(O)O as well.
Return: 0.111 µM

Enquiry: Again, but for CC(C)C[C@H](NC(=O)[C@H](CC#Cc1ccc(F)cc1F)NCP(=O)(O)O)C(=O)O
Return: 0.051 µM

Enquiry: Same question, O=C(NCc1ccccc1)[C@H](CC#Cc1ccccc1F)NCP(=O)(O)O this time
Return: 0.25 µM

Enquiry: Check O=C(O)[C@H](Cc1ccc2ccccc2c1)NC(=O)[C@H](CC#Cc1ccccc1F)NCP(=O)(O)O too.
Return: 0.025 µM

Enquiry: Do the same for O=C(NCCc1ccccc1)[C@H](CC#Cc1ccc(F)cc1F)NCP(=O)(O)O please
Return: 0.11 µM

Enquiry: Note, next up: O=C(NCCc1ccccc1)[C@H](CC#Cc1ccccc1F)NCP(=O)(O)O
Return: 0.23 µM

Enquiry: Now try CC(C)C[C@H](NC(=O)[C@H](CC#Cc1ccccc1Cl)NCP(=O)(O)O)C(=O)O .
Return: 4.3 µM

Enquiry: Now consider CC(C)C[C@H](NC(=O)[C@H](CC#Cc1cccc(F)c1)NCP(=O)(O)O)C(=O)O and answer again.
Return: 0.4 µM

---

Molecular target: UniProt P42892
Sequence (P42892 whole entry): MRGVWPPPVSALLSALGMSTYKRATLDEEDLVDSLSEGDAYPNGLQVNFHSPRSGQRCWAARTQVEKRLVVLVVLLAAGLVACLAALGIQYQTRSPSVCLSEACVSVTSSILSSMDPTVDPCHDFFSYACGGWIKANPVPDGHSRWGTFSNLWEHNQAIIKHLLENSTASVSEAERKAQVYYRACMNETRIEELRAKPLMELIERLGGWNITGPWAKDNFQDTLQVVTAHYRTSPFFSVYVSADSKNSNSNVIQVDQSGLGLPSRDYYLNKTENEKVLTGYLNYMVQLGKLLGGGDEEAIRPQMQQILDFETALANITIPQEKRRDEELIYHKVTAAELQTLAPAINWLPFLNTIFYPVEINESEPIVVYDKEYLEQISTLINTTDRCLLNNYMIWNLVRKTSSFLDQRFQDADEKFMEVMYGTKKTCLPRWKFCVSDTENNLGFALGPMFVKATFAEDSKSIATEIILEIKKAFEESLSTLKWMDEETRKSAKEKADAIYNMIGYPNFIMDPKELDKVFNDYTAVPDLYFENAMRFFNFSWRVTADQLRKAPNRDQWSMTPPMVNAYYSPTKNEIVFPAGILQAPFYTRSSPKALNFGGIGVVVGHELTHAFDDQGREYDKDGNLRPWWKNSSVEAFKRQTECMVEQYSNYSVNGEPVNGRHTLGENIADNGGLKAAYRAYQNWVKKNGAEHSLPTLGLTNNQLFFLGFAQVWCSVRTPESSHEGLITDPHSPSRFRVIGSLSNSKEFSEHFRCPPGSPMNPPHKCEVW
Test: Inhibitory activity was assessed on CHO cells expressing recombinant human Endothelin-converting enzyme 1 (ECE-1).
quantity: IC50 (nM)
Could you give me the number in nM? Just the number is fine.

Enquiry: Quick one: IC50 for O=C(O)CN1C(=O)[C@@H](NC(=O)[C@H](CC#Cc2ccc(F)cc2F)NCP(=O)(O)O)CCc2ccccc21 ?
Return: 82

Enquiry: What about this compound? CC(C)C[C@H](NC(=O)[C@H](CC#Cc1ccccc1F)NCP(=O)(O)O)C(=O)O
Return: 120

Enquiry: Then O=C(NCCc1cccc2ccccc12)[C@H](CC#Cc1ccccc1F)NCP(=O)(O)O ?
Return: 130

Enquiry: Request: CC(C)C[C@H](NC(=O)[C@H](CC#Cc1ccccc1)NCP(=O)(O)O)C(=O)O
Return: 510

Enquiry: Consider next the compound O=C(NCCc1ccc(Br)cc1)[C@H](CC#Cc1ccc(F)cc1F)NCP(=O)(O)O in the same way.
Return: 43
